# measured-on: KOR receptor (Homo sapiens)
# Construct: expressed in transfected cells; host or cells: HEK293
# Sequence (P41145 whole entry): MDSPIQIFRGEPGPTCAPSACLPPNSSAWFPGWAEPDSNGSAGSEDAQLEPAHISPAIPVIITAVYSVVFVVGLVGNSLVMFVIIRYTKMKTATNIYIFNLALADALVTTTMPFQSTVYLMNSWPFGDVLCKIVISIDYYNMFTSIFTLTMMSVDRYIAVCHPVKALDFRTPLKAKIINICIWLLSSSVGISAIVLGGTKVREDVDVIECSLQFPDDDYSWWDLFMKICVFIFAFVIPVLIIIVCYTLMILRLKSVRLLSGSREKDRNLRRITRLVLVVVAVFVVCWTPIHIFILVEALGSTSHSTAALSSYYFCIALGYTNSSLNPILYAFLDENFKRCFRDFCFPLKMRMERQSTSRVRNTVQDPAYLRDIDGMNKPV
# test: KOR activity test: HEK293/KOR/CRE luciferase reporter, cAMP levels
# Assay type: cell-based
# experimental-conditions: HEK293; maximum effect of morphine is 100%
Documented Emax across a set of compounds
measurement-label: Emax (%)

>>> df
                                   compound                  measured_on  result_value
0  COC[C@H]1CC[C@H](NCC[C@@]2(c3ccccn3)CCOC3(CCCC3)C2)c2ccccc21 [Example 22]  KOR receptor (Homo sapiens)            97
1  c1ccc([C@]2(CCN[C@H]3CC[C@H](OCC4CC4)c4ccccc43)CCOC3(CCCC3)C2)nc1 [Example 20]  KOR receptor (Homo sapiens)           103
2  CCO[C@H]1CC[C@H](NCC[C@@]2(c3ccccn3)CCOC3(CCCC3)C2)c2ccccc21 [Example 19]  KOR receptor (Homo sapiens)            96
3  CO[C@H]1CC[C@H](NCC[C@@]2(c3ccccn3)CCOC3(CCCC3)C2)c2ccccc21 [Example 14]  KOR receptor (Homo sapiens)            74
4  FCCO[C@H]1CC[C@H](NCC[C@@]2(c3ccccn3)CCOC3(CCCC3)C2)c2ccccc21 [Example 21]  KOR receptor (Homo sapiens)           100
5  O=C1CC[C@H](NCC[C@@]2(c3ccccn3)CCOC3(CCCC3)C2)c2ccccc21 [Example 11]  KOR receptor (Homo sapiens)            98

---

# measured-on: MOR receptor (Homo sapiens)
# Construct: host or cells: CHO-K1
# Sequence (P35372 whole entry): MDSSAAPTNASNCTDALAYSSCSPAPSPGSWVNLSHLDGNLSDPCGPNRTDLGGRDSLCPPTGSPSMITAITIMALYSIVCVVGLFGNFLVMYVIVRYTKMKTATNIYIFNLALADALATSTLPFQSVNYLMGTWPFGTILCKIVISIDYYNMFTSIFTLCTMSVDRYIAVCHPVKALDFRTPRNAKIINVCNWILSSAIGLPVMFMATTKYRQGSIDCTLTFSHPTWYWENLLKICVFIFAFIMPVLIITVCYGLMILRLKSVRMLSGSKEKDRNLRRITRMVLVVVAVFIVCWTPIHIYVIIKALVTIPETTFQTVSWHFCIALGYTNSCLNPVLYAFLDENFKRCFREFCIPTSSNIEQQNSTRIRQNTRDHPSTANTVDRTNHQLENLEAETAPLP
# test: Activation of the β-arrestin signaling pathway of MOR receptor (CHO-K1 OPRM1 β-Arrestin cells, DiscoveRX)
# Format: cell-based
# Protocol: The experiment objective is to determine the activity of the compounds of the present invention on activating the β-arrestin signaling pathway of MOR receptor. The drug was prepared as a 20 mM stock solution that was later diluted with 100% DMSO to a 200×concentration gradient, and then diluted with a 20-fold AssayComplete™ Cell Plating 2 Reagent (93-0563R2B, DiscoveRX) medium. […] The absorbance values were measured by the cold light model of a microplate reader (PE, Victor3). […]
Documented EC50 across a set of compounds
measurement-label: EC50 (nM)

                              line_notation  measurement_label  measure_unit  result_value
0  CO[C@H]1CC[C@H](NCC[C@@]2(c3ccccn3)CCOC3(CCCC3)C2)c2ccccc21               EC50            nM            26
1  O=C1CC[C@H](NCC[C@@]2(c3ccccn3)CCOC3(CCCC3)C2)c2ccccc21               EC50            nM           305
2  C=C1CC[C@H](NCC[C@@]2(c3ccccn3)CCOC3(CCCC3)C2)c2ccccc21               EC50            nM            15
3  COC[C@H]1CC[C@H](NCC[C@@]2(c3ccccn3)CCOC3(CCCC3)C2)c2ccccc21               EC50            nM            41
4  c1ccc([C@]2(CCN[C@H]3CCc4ccccc43)CCOC3(CCCC3)C2)nc1               EC50            nM            94
5  CCO[C@H]1CC[C@H](NCC[C@@]2(c3ccccn3)CCOC3(CCCC3)C2)c2ccccc21               EC50            nM            24

---

# measured-on: μ-opioid receptors (MOR) (Homo sapiens, UniProt P35372)
# Construct: host or cells: HEK293
# test: MOR activity test: HEK293/MOR/CRE luciferase reporter, agonizing MOR and affecting downstream cAMP levels
# Assay type: cell-based
Documented EC50 across a set of molecules
measurement-label: EC50 (nM)

>>> df
                                    molecule                               measured_on  rel  result_value
 0  c1ccc([C@]2(CCN[C@@H]3CCOc4ccccc43)CCOC3(CCCC3)C2)nc1 [Example 7]  μ-opioid receptors (MOR) (Homo sapiens, UniProt P35372)    >         10000
 1  c1ccc([C@]2(CCN[C@@H]3CCCc4ccccc43)CCOC3(CCCC3)C2)nc1 [Example 9]  μ-opioid receptors (MOR) (Homo sapiens, UniProt P35372)    >         10000
 2  c1ccc([C@]2(CCN[C@H]3CCOc4ccccc43)CCOC3(CCCC3)C2)nc1 [Example 6]  μ-opioid receptors (MOR) (Homo sapiens, UniProt P35372)    =             1
 3  COC[C@H]1CC[C@H](NCC[C@@]2(c3ccccn3)CCOC3(CCCC3)C2)c2ccccc21 [Example 22]  μ-opioid receptors (MOR) (Homo sapiens, UniProt P35372)    =             4
 4  c1ccc([C@]2(CCN[C@H]3CCc4ccccc43)CCOC3(CCCC3)C2)nc1 [Example 16]  μ-opioid receptors (MOR) (Homo sapiens, UniProt P35372)    =             9
 5  O[C@@H]1Cc2ccccc2[C@H]1NCC[C@@]1(c2ccccn2)CCOC2(CCCC2)C1 [Example 3]  μ-opioid receptors (MOR) (Homo sapiens, UniProt P35372)    =             2
 6  O=C1CC[C@H](NCC[C@@]2(c3ccccn3)CCOC3(CCCC3)C2)c2ccccc21 [Example 11]  μ-opioid receptors (MOR) (Homo sapiens, UniProt P35372)    =            17
 7  c1ccc([C@]2(CCN[C@@H]3CCc4ccccc43)CCOC3(CCCC3)C2)nc1 [Example 15]  μ-opioid receptors (MOR) (Homo sapiens, UniProt P35372)    >         10000
 8  Fc1ccc2c(c1)C(NCC[C@@]1(c3ccccn3)CCOC3(CCCC3)C1)CCO2 (some centres unmarked) [Example 8]  μ-opioid receptors (MOR) (Homo sapiens, UniProt P35372)    =             3
 9  CO[C@@H]1Cc2ccccc2[C@H]1NCC[C@@]1(c2ccccn2)CCOC2(CCCC2)C1 [Example 4]  μ-opioid receptors (MOR) (Homo sapiens, UniProt P35372)    =             1
10  CO[C@H]1Cc2ccccc2[C@@H]1NCC[C@@]1(c2ccccn2)CCOC2(CCCC2)C1 [Example 17]  μ-opioid receptors (MOR) (Homo sapiens, UniProt P35372)    >         10000

---

# measured-on: MOR receptor (Homo sapiens)
# Construct: host or cells: CHO-K1
# test: Activation of the β-arrestin signaling pathway of MOR receptor (CHO-K1 OPRM1 β-Arrestin cells, DiscoveRX)
# Format: cell-based
# experimental-conditions: maximum effect of morphine is 100%
measurement-label: Emax (%)

                              line_notation  measure_unit  result_value
0  CCCO[C@H]1CC[C@H](NCC[C@@]2(c3ccccn3)CCOC3(CCCC3)C2)c2ccccc21             %            10
1  CO[C@H]1CC[C@H](NCC[C@@]2(c3ccccn3)CCOC3(CCCC3)C2)c2ccccc21             %            24
2  COC[C@H]1CC[C@H](NCC[C@@]2(c3ccccn3)CCOC3(CCCC3)C2)c2ccccc21             %            18
3  CCO[C@H]1CC[C@H](NCC[C@@]2(c3ccccn3)CCOC3(CCCC3)C2)c2ccccc21             %            13
4  c1ccc([C@]2(CCN[C@H]3CCc4ccccc43)CCOC3(CCCC3)C2)nc1             %             9
